Assay: Alamar blue cytotoxicity assay
Type: cell-based, mouse
Settings: mouse, Neuro2A (N2A) neuroblastoma cells, highest tested concentration (20 μM), 40 h, normalized to DMSO-only control, read-out: cell viability
property-label: viability at 40 h, 20 µM

// CNc1ccc(/C=C/c2cc(CN3CCN(C)CCN(C)CC3)c(O)c(OC)c2)cc1 : viability at 40 h, 20 µM value = 88%

----------
Test system: Cu-Aβ42 cytotoxicity on N2a cells
Assay: N2a cell rescue from Cu-induced Aβ42 cytotoxicity (Alamar blue)
Type: cell-based, mouse
Conditions: [Aβ42] = [CuCl2] = 20 μM, compound 5 μM
property-label: effect on Cu-stabilized Aβ42 / Aβ42-induced toxicity

> print(dat)
                                   compound              assay.result
1  CN1CCN(C)CCN(Cc2cc(/C=C/c3ccc(N(C)C)cc3)ccc2O)CC1 [Compound L4]  toxicity was exacerbated
2  CN1CCN(C)CCN(Cc2cc(/C=C/c3ccc(N4CCCCC4)cc3)ccc2O)CC1 [Compound L8]  toxicity was exacerbated
